Test system: L1210 leukemia ip in BDF1 mice, survival T/C
Assay Notes: NCI In Vivo Anticancer Drug Screen. Data for tumor model L1210 Leukemia (intraperitoneal) in B6D2F1 (BDF1) mice
Condition Info: endpoint: mean survival time; dose: 200.0 mg/kg/injection; schedule: Q01DX009 (ip); vehicle: saline with Tween-80; higher = longer survival
Toxic doses and inconclusive results are not listed.
What T/C was measured for each of the following?

INSERT INTO assay_data (molecule, measurement_name, value_observed) VALUES
  ('CCC/C=C/C(O)C1CCCCC1 (stereo not drawn)', 'T/C', '95 % of control'),
  ('CCOC(=O)CC1C(=O)Oc2ccc(O)cc21 (stereo not drawn) (tested in a mixture with another compound)', 'T/C', '97 % of control'),
  ('CCOC(=O)C(C)C(C)(O)c1ccccc1 (stereo not drawn)', 'T/C', '109 % of control'),
  ('O=C(CC(O)(C(F)(F)Cl)C(F)(F)Cl)c1cccs1', 'T/C', '114 % of control'),
  ('Cc1ccc2[nH]c(-c3ccccc3)c(-c3ccccc3)c2c1', 'T/C', '103 % of control'),
  ('OC1(c2cccc3ccccc23)CCCCC1', 'T/C', '103 % of control'),
  ('CC(=O)C1CCC2C3CCC4=CC(=O)CC4(C)C3CCC12C (stereo not drawn)', 'T/C', '90 % of control');

Now take the following molecule into account.
Look up T/C of CCOC(=O)C(C#N)C(C)CC#N (stereo not drawn) and report it. 117 % of control

----------
Tested on: L1210 leukemia ip in BDF1 mice, survival T/C
Assay Notes: NCI In Vivo Anticancer Drug Screen. Data for tumor model L1210 Leukemia (intraperitoneal) in B6D2F1 (BDF1) mice
Condition Info: endpoint: mean survival time; dose: 200.0 mg/kg/injection; schedule: Q04DX002 (ip); vehicle: Klucel (hydroxypropylcellulose) (HPC); higher = longer survival
Inconclusive results and toxic doses are left out.
Measurement Name: T/C

Below are worked cases with known answers.
INSERT INTO assay_data (compound, target_entity, measurement_name, value_observed) VALUES
  ('Cc1ccc(S(=O)(=O)N/N=C2/CC(C)(C)CC(=O)C2(C)C)cc1', 'L1210 leukemia ip in BDF1 mice, survival T/C', 'T/C', '102 % of control'),
  ('N#Cc1nccc2ccccc12', 'L1210 leukemia ip in BDF1 mice, survival T/C', 'T/C', '103 % of control'),
  ('Cc1cccc(C(O)c2cnc(C)n2Cc2ccccc2)c1 (configuration not stated)', 'L1210 leukemia ip in BDF1 mice, survival T/C', 'T/C', '96 % of control'),
  ('Cc1cccc(NC(C(=O)O)c2ccccc2)c1 (configuration not stated)', 'L1210 leukemia ip in BDF1 mice, survival T/C', 'T/C', '93 % of control'),
  ('O=C1OC(=O)C2C3C=CC3C12 (configuration not stated)', 'L1210 leukemia ip in BDF1 mice, survival T/C', 'T/C', '100 % of control'),
  ('O=C(NNC(=O)c1ccccc1)c1ccccc1', 'L1210 leukemia ip in BDF1 mice, survival T/C', 'T/C', '101 % of control');

Now take the following compound into account.
Look up T/C of O=C(NC1CCCCC1)c1ccc(C(=O)NC2CCCCC2)cc1 and report it. 102 % of control
